target.or.system: Gastrotropin (Homo sapiens)
Sequence (P51161 whole entry): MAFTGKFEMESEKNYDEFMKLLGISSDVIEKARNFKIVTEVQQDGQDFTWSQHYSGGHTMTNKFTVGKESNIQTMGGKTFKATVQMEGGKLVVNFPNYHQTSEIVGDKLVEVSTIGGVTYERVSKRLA
protocol.text: Binding affinity to recombinant human N-terminal His6 and Avi-tagged FABP6 expressed in Escherichia coli NEB cells by surface plasmon resonance method
Measured Kd by item

Here are 5 compounds together with their reported answers.
compound	Kd
Nc1nc2ccc(C(=O)c3ccccc3)cc2[nH]1	13 µM
c1ccc(CNc2ccccn2)cc1	300 µM
CN1CCN(C(=O)c2ccc(=O)n(Cc3ccc(Cl)cc3)c2)CC1	210 µM
COC(=O)c1cscc1-c1ccc(C(=O)N2CCOCC2)o1	80 µM
O=C(c1ccco1)N1CCN(Cc2ccc3c(c2)OCO3)CC1	210 µM

[in] Find the measured Kd of `Cc1nc(Cn2cnc3cc(C)c(C)cc32)cs1` and report it.
[out] 400 µM
